# System: Liver
# assay explanation: Antioxidant activity in rat liver homogenates assessed as inhibition of lipid peroxidation by measuring formation of thiobarbituric acid-reactive substance after 30 mins
# Format: functional, tissue-based
# condition label: 0.5 h
pIC50: −log10 of the molar value.
readout: pIC50

Worked examples follow.
CCCC/C(=C\c1ccc(O)c(O)c1)C(=O)N[C@@H](Cc1ccccc1)C(=O)C(=O)NCc1ccccc1 (stereo in doubt) | 5.13
O=C(/C=C/c1ccc(O)c(O)c1)N[C@@H](Cc1ccccc1)C(=O)C(=O)NCc1ccccc1 | 5.12
CC/C(=C\c1ccc(O)c(O)c1)C(=O)N[C@@H](Cc1ccccc1)C(=O)C(=O)NCc1ccccc1 (stereo in doubt) | 5.22

1. CC/C(=C\c1ccc(O)c(O)c1)C(=O)N[C@@H](Cc1ccccc1)C(=O)C(=O)NCCc1ccc(OC)cc1 (stereo in doubt)
2. Cc1c(C)c2c(c(C)c1O)CCC(C)(C(=O)O)O2 (centres undefined)
3. CCCC/C(=C\c1ccc(O)c(OC)c1)C(=O)N[C@@H](Cc1ccccc1)C(=O)C(=O)NCCc1ccc(OC)cc1 (stereo in doubt)
Please rank these compounds by pIC50 in descending order. List labels; respect the requested ordering.
1, 3, 2
